System: Staphylococcus aureus 447
Test: broth micro-dilution MIC
Assay type: cell-based

molecule	targetOfAssay	inequalitySign	MIC (µg/mL)
CNC(CC(C)C)C(=O)NC1C(=O)NC(CC(N)=O)C(=O)NC2C(=O)NC3C(=O)NC(C(=O)NC(C(=O)O)c4cc(O)cc(O)c4-c4cc3ccc4O)C(OC3CC(C)(N)C(O)C(C)O3)c3ccc(c(Cl)c3)Oc3cc2cc(c3OC2OC(CO)C(O)C(O)C2OC2CC(C)(NCc3ccc(-c4ccc(OC)c(OC)c4)cc3)C(O)C(C)O2)Oc2ccc(cc2Cl)C1O (stereo not drawn)	Staphylococcus aureus 447	=	0.5
CNC(CC(C)C)C(=O)NC1C(=O)NC(CC(N)=O)C(=O)NC2C(=O)NC3C(=O)NC(C(=O)NC(C(=O)O)c4cc(O)cc(O)c4-c4cc3ccc4O)C(OC3CC(C)(N)C(O)C(C)O3)c3ccc(c(Cl)c3)Oc3cc2cc(c3OC2OC(CO)C(O)C(O)C2OC2CC(C)(NCc3cccc(Oc4ccc(Cl)cc4)c3)C(O)C(C)O2)Oc2ccc(cc2Cl)C1O (stereo not drawn)	Staphylococcus aureus 447	=	0.5
C=CCOc1ccc(CNC2(C)CC(OC3C(Oc4c5cc6cc4Oc4ccc(cc4Cl)C(OC4CC(C)(N)C(O)C(C)O4)C4NC(=O)C(NC(=O)C6NC(=O)C(CC(N)=O)NC(=O)C(NC(=O)C(CC(C)C)NC)C(O)c6ccc(c(Cl)c6)O5)c5ccc(O)c(c5)-c5c(O)cc(O)cc5C(C(=O)O)NC4=O)OC(CO)C(O)C3O)OC(C)C2O)cc1 (stereo not drawn)	Staphylococcus aureus 447	=	4
CC(C)CC(C(=O)NC1C(=O)NC(CC(N)=O)C(=O)NC2C(=O)NC3C(=O)NC(C(=O)NC(C(=O)O)c4cc(O)cc(O)c4-c4cc3ccc4O)C(OC3CC(C)(NCc4cccc5c([N+](=O)[O-])cccc45)C(O)C(C)O3)c3ccc(c(Cl)c3)Oc3cc2cc(c3OC2OC(CO)C(O)C(O)C2OC2CC(C)(N)C(O)C(C)O2)Oc2ccc(cc2Cl)C1O)N(C)Cc1cccc2c([N+](=O)[O-])cccc12 (stereo not drawn)	Staphylococcus aureus 447	=	8
CNC(CC(C)C)C(=O)NC1C(=O)NC(CC(N)=O)C(=O)NC2C(=O)NC3C(=O)NC(C(=O)NC(C(=O)O)c4cc(O)cc(O)c4-c4cc3ccc4O)C(OC3CC(C)(N)C(O)C(C)O3)c3ccc(c(Cl)c3)Oc3cc2cc(c3OC2OC(CO)C(O)C(O)C2OC2CC(C)(NCCCCCCCCCCCCc3ccccc3)C(O)C(C)O2)Oc2ccc(cc2Cl)C1O (stereo not drawn)	Staphylococcus aureus 447	=	8
CC(C)CC(C(=O)NC1C(=O)NC(CC(N)=O)C(=O)NC2C(=O)NC3C(=O)NC(C(=O)NC(C(=O)O)c4cc(O)cc(O)c4-c4cc3ccc4O)C(OC3CC(C)(N)C(O)C(C)O3)c3ccc(c(Cl)c3)Oc3cc2cc(c3OC2OC(CO)C(O)C(O)C2OC2CC(C)(NCc3ccccn3)C(O)C(C)O2)Oc2ccc(cc2Cl)C1O)N(C)Cc1ccccn1 (stereo not drawn)	Staphylococcus aureus 447	>	64

* * *

Test system: Staphylococcus aureus 447
Assay: broth micro-dilution MIC
Format: cell-based
Listed compounds paired with reported MIC

compound	MIC / µg/mL
CN[C@H](CC(C)C)C(=O)N[C@H]1C(=O)N[C@@H](CC(N)=O)C(=O)N[C@H]2C(=O)N[C@H]3C(=O)N[C@H](C(=O)N[C@H](C(=O)O)c4cc(O)cc(O)c4-c4cc3ccc4O)[C@H](O[C@H]3C[C@](C)(N)[C@@H](O)[C@H](C)O3)c3ccc(c(Cl)c3)Oc3cc2cc(c3O[C@@H]2O[C@H](CO)[C@@H](O)[C@H](O)[C@H]2O[C@H]2C[C@](C)(NCc3ccc(Oc4ccc(C(C)(C)C)cc4)cc3)[C@@H](O)[C@H](C)O2)Oc2ccc(cc2Cl)[C@H]1O [Compound 96]	1
CNC(CC(C)C)C(=O)NC1C(=O)NC(CC(N)=O)C(=O)NC2C(=O)NC3C(=O)NC(C(=O)NC(C(=O)O)c4cc(O)cc(O)c4-c4cc3ccc4O)C(OC3CC(C)(N)C(O)C(C)O3)c3ccc(c(Cl)c3)Oc3cc2cc(c3OC2OC(CO)C(O)C(O)C2OC2CC(C)(NCc3ccc(N4CCN(C)CC4)cc3)C(O)C(C)O2)Oc2ccc(cc2Cl)C1O (stereo not drawn) [Compound 146]	2
CNC(CC(C)C)C(=O)NC1C(=O)NC(CC(N)=O)C(=O)NC2C(=O)NC3C(=O)NC(C(=O)NC(C(=O)O)c4cc(O)cc(O)c4-c4cc3ccc4O)C(OC3CC(C)(N)C(O)C(C)O3)c3ccc(c(Cl)c3)Oc3cc2cc(c3OC2OC(CO)C(O)C(O)C2OC2CC(C)(NCc3ccc4c(c3)CCc3ccccc3-4)C(O)C(C)O2)Oc2ccc(cc2Cl)C1O (stereo not drawn) [Compound 220]	0.5
CNC(CC(C)C)C(=O)NC1C(=O)NC(CC(N)=O)C(=O)NC2C(=O)NC3C(=O)NC(C(=O)NC(C(=O)O)c4cc(O)cc(O)c4-c4cc3ccc4O)C(OC3CC(C)(N)C(O)C(C)O3)c3ccc(c(Cl)c3)Oc3cc2cc(c3OC2OC(CO)C(O)C(O)C2OC2CC(C)(NCCCCCCCCBr)C(O)C(C)O2)Oc2ccc(cc2Cl)C1O (stereo not drawn) [Compound 198]	0.125
CNC(CC(C)C)C(=O)NC1C(=O)NC(CC(N)=O)C(=O)NC2C(=O)NC3C(=O)NC(C(=O)NC(C(=O)O)c4cc(O)cc(O)c4-c4cc3ccc4O)C(OC3CC(C)(N)C(O)C(C)O3)c3ccc(c(Cl)c3)Oc3cc2cc(c3OC2OC(CO)C(O)C(O)C2OC2CC(C)(NCc3c4c(cc5ccccc35)CCCC4)C(O)C(C)O2)Oc2ccc(cc2Cl)C1O (stereo not drawn) [Compound 156]	1
CNC(CC(C)C)C(=O)NC1C(=O)NC(CC(N)=O)C(=O)NC2C(=O)NC3C(=O)NC(C(=O)NC(C(=O)O)c4cc(O)cc(O)c4-c4cc3ccc4O)C(OC3CC(C)(N)C(O)C(C)O3)c3ccc(c(Cl)c3)Oc3cc2cc(c3OC2OC(CO)C(O)C(O)C2OC2CC(C)(NCc3ccc4cc(OC)ccc4c3)C(O)C(C)O2)Oc2ccc(cc2Cl)C1O (stereo not drawn) [Compound 65]	1

Where do the numbers come from? From patent US5840684A.
